Source: patent US8372823B2

Target: FAAH (Homo sapiens)
Sequence (O00519 whole entry): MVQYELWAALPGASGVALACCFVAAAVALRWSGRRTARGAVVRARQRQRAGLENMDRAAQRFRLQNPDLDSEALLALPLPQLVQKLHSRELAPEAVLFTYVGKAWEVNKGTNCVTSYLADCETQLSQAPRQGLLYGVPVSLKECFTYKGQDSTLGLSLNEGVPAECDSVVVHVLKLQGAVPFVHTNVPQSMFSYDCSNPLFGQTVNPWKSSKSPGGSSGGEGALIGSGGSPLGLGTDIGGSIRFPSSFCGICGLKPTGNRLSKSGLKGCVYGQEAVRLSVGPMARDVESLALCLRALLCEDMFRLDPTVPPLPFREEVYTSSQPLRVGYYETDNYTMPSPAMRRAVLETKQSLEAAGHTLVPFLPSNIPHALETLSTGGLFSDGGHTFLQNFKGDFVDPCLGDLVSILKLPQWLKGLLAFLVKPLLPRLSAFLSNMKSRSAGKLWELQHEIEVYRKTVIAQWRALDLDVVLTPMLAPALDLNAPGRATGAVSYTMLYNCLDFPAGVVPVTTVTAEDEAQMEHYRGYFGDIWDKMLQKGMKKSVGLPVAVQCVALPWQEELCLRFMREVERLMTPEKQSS
Recorded IC50 values for a group of molecules are listed next.
# unit: nM | format: bare number

Sample records with IC50:
compoundStructureString	readoutLabel	observed
COC(=O)c1cccc(-c2cnc(C(=O)CCc3ccc(-c4ccccc4)cc3)o2)n1	IC50	3
COC(=O)c1ccc(-c2cnc(C(=O)CCc3ccc(-c4ccccc4)cc3)o2)nc1	IC50	5

In the following, a different molecule is considered.
# "O=C(O)c1cccc(-c2cnc(C(=O)CCc3ccc(-c4ccc(CN5CCOCC5)cc4)cc3)o2)n1" with FAAH (Homo sapiens): IC50 is 9

====

Molecular target: purified recombinant rat FAAH (Rattus norvegicus, UniProt P97612)
Construct: made in house; host or cells: E. coli
Sequence (P97612 whole entry): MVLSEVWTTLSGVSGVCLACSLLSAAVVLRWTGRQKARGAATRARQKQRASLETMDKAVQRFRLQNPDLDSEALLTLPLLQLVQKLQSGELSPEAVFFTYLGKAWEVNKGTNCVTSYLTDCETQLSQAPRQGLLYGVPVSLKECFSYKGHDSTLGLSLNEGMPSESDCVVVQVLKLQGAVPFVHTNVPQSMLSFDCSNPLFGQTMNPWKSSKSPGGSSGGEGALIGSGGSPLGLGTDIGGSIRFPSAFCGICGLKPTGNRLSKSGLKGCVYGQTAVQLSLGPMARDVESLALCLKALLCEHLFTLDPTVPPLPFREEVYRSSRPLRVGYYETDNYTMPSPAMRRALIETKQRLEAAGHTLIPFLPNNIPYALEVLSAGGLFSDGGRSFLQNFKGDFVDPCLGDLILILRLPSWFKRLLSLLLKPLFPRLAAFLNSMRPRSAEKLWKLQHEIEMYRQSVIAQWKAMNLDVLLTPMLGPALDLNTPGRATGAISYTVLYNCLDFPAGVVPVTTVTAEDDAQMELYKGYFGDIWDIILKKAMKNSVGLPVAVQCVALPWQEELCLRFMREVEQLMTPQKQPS
Assay: FAAH enzyme assay, Ki (Dixon plot), rat FAAH
Assay type: biochemical
Settings: purified recombinant rat FAAH expressed in E. coli; 14C-oleamide hydrolysis; pH 9.0; 20-23° C.
pKi: −log10 of the molar value.
# cutoff 8 applies to pKi; >= gives Condition met, < gives Condition not met

Sample answers from the record:
molecule	cat
O=C(CCc1ccc(-c2ccccc2)cc1)c1ncc(-c2cccnc2)o1	Condition met
CN(C)Cc1ccc(-c2ccc(CCC(=O)c3ncc(-c4cccc(C(=O)O)n4)o3)cc2)cc1	Condition not met
COC(=O)c1ccc(-c2cnc(C(=O)CCc3ccc(COc4ccccc4)cc3)o2)nc1	Condition met
COC(=O)c1cccc(-c2cnc(C(=O)CCc3ccc(-c4ccc(CN5CCN(C)CC5)cc4)cc3)o2)n1	Condition not met
NC(=O)c1ccc(-c2cnc(C(=O)CCc3ccc(-c4ccccc4)cc3)o2)nc1	Condition met
COC(=O)c1ccc(-c2cnc(C(=O)CCc3ccc(-c4ccccc4)cc3)o2)nc1	Condition met

Prompt: Please tell me: is the molecule "O=C(CCc1ccc(-c2ccccc2)cc1)c1ncc(-c2cccc(-c3nnn[nH]3)n2)o1" at or over 8 in terms of pKi?
Completion: Condition not met

Prompt: Please tell me: is the molecule "COC(=O)c1cccc(-c2cnc(C(=O)CCc3ccc(-c4ccc(CN(C)C)cc4)cc3)o2)n1" at or over 8 in terms of pKi?
Completion: Condition not met

Prompt: Please tell me: is the molecule "COC(=O)c1cccc(-c2cnc(C(=O)CCc3ccc(-c4ccc(CN5CCCC5)cc4)cc3)o2)n1" at or over 8 in terms of pKi?
Completion: Condition not met

Prompt: Please tell me: is the molecule "O=C(O)c1cccc(-c2cnc(C(=O)CCc3ccc(-c4ccc(CN5CCCCC5)cc4)cc3)o2)n1" at or over 8 in terms of pKi?
Completion: Condition not met

Prompt: Please tell me: is the molecule O=C(CCc1ccc(COc2ccccc2)cc1)c1ncc(-c2ccccn2)o1 [Example 11e] at or over 8 in terms of pKi?
Completion: Condition met

Prompt: Please tell me: is the molecule "O=C(CCc1ccc(-c2ccccc2)cc1)c1ncc(-c2ccncc2)o1" at or over 8 in terms of pKi?
Completion: Condition met

Prompt: Please tell me: is the molecule O=C(CCc1ccc(Cc2ccccc2)cc1)c1ncc(-c2ccccn2)o1 [Example 11h] at or over 8 in terms of pKi?
Completion: Condition met

Prompt: Please tell me: is the molecule "O=C(O)c1cccc(-c2cnc(C(=O)CCc3ccc(-c4ccc(CN5CCCC5)cc4)cc3)o2)n1" at or over 8 in terms of pKi?
Completion: Condition not met

Prompt: Please tell me: is the molecule "O=C(O)c1cc(-c2cnc(C(=O)CCc3ccc(-c4ccccc4)cc3)o2)ccn1" at or over 8 in terms of pKi?
Completion: Condition not met

Prompt: Please tell me: is the molecule O=C(CCc1ccc(Oc2ccccc2)cc1)c1ncc(-c2ccccn2)o1 [Example 11f] at or over 8 in terms of pKi?
Completion: Condition met

Prompt: Please tell me: is the molecule "O=C(O)c1cccc(-c2cnc(C(=O)CCc3ccc(-c4ccc(CN5CCSCC5)cc4)cc3)o2)n1" at or over 8 in terms of pKi?
Completion: Condition not met

Prompt: Please tell me: is the molecule "N#Cc1cccc(-c2cnc(C(=O)CCc3ccc(-c4ccccc4)cc3)o2)n1" at or over 8 in terms of pKi?
Completion: Condition met

Prompt: Please tell me: is the molecule "COC(=O)c1cccc(-c2cnc(C(=O)CCc3ccc(COc4ccccc4)cc3)o2)n1" at or over 8 in terms of pKi?
Completion: Condition met

Prompt: Please tell me: is the molecule "CCOC(=O)c1cccc(-c2cnc(C(=O)CCc3ccc(-c4ccccc4)cc3)o2)n1" at or over 8 in terms of pKi?
Completion: Condition met

Prompt: Please tell me: is the molecule "COC(=O)c1cc(-c2cnc(C(=O)CCc3ccc(-c4ccccc4)cc3)o2)ccn1" at or over 8 in terms of pKi?
Completion: Condition met

Prompt: Please tell me: is the molecule "COC(=O)c1ccc(-c2cnc(C(=O)CCc3ccc(Oc4ccccc4)cc3)o2)nc1" at or over 8 in terms of pKi?
Completion: Condition not met

Prompt: Please tell me: is the molecule O=C(CCc1cccc(OCc2ccccc2)c1)c1ncc(-c2ccccn2)o1 [Example 11c] at or over 8 in terms of pKi?
Completion: Condition not met

Prompt: Please tell me: is the molecule "O=C(O)c1ccc(-c2cnc(C(=O)CCc3ccc(Oc4ccccc4)cc3)o2)nc1" at or over 8 in terms of pKi?
Completion: Condition not met
